- Test system: TTR
- Assay: TTR editing in HUH7 cells transfected with Spy Cas9 mRNA and dgRNAs (Table 5)
- Type: cell-based, human
- Settings: HUH7 cells co-transfected with Spy Cas9 mRNA (SEQ ID NO:2) and dgRNAs
Assignment: determine reported Avg % Insert for the given sequences.
Report the value in % with no unit label.

Problem: Give its Avg % Insert value. Item: ACCUCUGCAUGCUCAUGGAA (tested as dual guide RNA, chemistry not given here) [CR003371]
Solution: 6.07

Problem: Give its Avg % Insert value. Item: ACACAAAUACCAGUCCAGCA (tested as dual guide RNA, chemistry not given here) [CR003339]
Solution: 60.55

Problem: Give its Avg % Insert value. Item: AGUGAGUCUGGAGAGCUGCA (tested as dual guide RNA, chemistry not given here) [CR003359]
Solution: 21.73

Problem: Give its Avg % Insert value. Item: GGGAUUGGUGACGACAGCCG (tested as dual guide RNA, chemistry not given here) [CR003390]
Solution: 3.31

----------
- Tested on: TTR
- Assay: TTR editing in HepG2 cells transfected with Spy Cas9 mRNA and dgRNAs (Table 6)
- Format: cell-based, human
- Settings: HepG2 cells co-transfected with Spy Cas9 mRNA (SEQ ID NO:2) and dgRNAs
Assignment: determine reported Avg % Edit for the given sequences.
Report the value in % with no unit label.

Problem: Give its Avg % Edit value. Item: UACUCACCUCUGCAUGCUCA (tested as dual guide RNA, chemistry not given here) [CR003372]
Solution: 14.57

Problem: Give its Avg % Edit value. Item: UCCACUCAUUCUUGGCAGGA (tested as dual guide RNA, chemistry not given here) [CR005298]
Solution: 42.65

Problem: Give its Avg % Edit value. Item: CCUCUGCAUGCUCAUGGAAU (tested as dual guide RNA, chemistry not given here) [CR003370]
Solution: 28.51

Problem: Give its Avg % Edit value. Item: UAUAGGAAAACCAGUGAGUC (tested as dual guide RNA, chemistry not given here) [CR005305]
Solution: 13.51

Problem: Give its Avg % Edit value. Item: AUACCAGUCCAGCAAGGCAG (tested as dual guide RNA, chemistry not given here) [CR003338]
Solution: 68.00

Problem: Give its Avg % Edit value. Item: UUUGACCAUCAGAGGACACU (tested as dual guide RNA, chemistry not given here) [CR003344]
Solution: 33.43

Problem: Give its Avg % Edit value. Item: CGGCAAUGGUGUAGCGGCGG (tested as dual guide RNA, chemistry not given here) [CR003376]
Solution: 14.41

Ref: patent US11795460B2
